- Test system: 186277-243-T-J2-PDC complex spheroids, viability;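 note: spheroids exposed to compounds for 7 days before viability read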
- ASSAY INFO: Anticancer human tumor 186277-243-T-J2-PDC patient-derived colon adenocarcinoma cell line growth inhibition [RAS]; active = viability on the fitted dose curve at most 10% of control; inactive = the rest
- APPLIED CONDITIONS: second compound 0.000949 µM; first compound 1 µM
Your answer must be one of the following: class 1 for active, class 0 for inactive

Here are 4 molecules together with their reported answers.
>  <MOLECULE>
CC(Nc1ccc2c(c1)OCCn1cc(N3C(=O)OCC3C(F)F)nc1-2)C(N)=O (stereo not given) + CCn1c(-c2cc(N3CCN(C)CC3)cnc2C(C)OC)c2c3cc(ccc31)-c1csc(n1)CC(NC(=O)C1CC1C)C(=O)N1CCCC(N1)C(=O)OCC(C)(C)C2

>  <MEASUREMENT TARGET>
186277-243-T-J2-PDC complex spheroids, viability;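 note: spheroids exposed to compounds for 7 days before viability read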

>  <CLASS LABEL>
class 0

$$$$
>  <MOLECULE>
CCN1CCN(Cc2ccc(Nc3ncc(F)c(-c4cc(F)c5nc(C)n(C(C)C)c5c4)n3)nc2)CC1 + CCn1c(-c2cccnc2C(C)OC)c2c3cc(ccc31)N1CCOC(CC(NC(=O)C(C(C)C)N(C)C(=O)C3(F)CCN(C(=O)C#CC(C)(C)N(C)C)CC3)C(=O)N3CCCC(N3)C(=O)OCC(C)(C)C2)C1

>  <MEASUREMENT TARGET>
186277-243-T-J2-PDC complex spheroids, viability;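 note: spheroids exposed to compounds for 7 days before viability read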

>  <CLASS LABEL>
class 0

$$$$
>  <MOLECULE>
CCC(CC)c1cc(NC2CCC(N)C2)n2nccc2n1 (stereo not given) + CCn1c(-c2cc(N3CCN(C)CC3)cnc2C(C)OC)c2c3cc(ccc31)-c1csc(n1)CC(NC(=O)C1CC1C)C(=O)N1CCCC(N1)C(=O)OCC(C)(C)C2

>  <MEASUREMENT TARGET>
186277-243-T-J2-PDC complex spheroids, viability;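 note: spheroids exposed to compounds for 7 days before viability read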

>  <CLASS LABEL>
class 0

$$$$
>  <MOLECULE>
C[C@@H](NC(=O)c1ncnc(N)c1Cl)c1ncc(C(=O)Nc2cc(C(F)(F)F)c(Cl)cn2)s1 + CCn1c(-c2cc(N3CCN(C)CC3)cnc2C(C)OC)c2c3cc(ccc31)-c1csc(n1)CC(NC(=O)C1CC1C)C(=O)N1CCCC(N1)C(=O)OCC(C)(C)C2

>  <MEASUREMENT TARGET>
186277-243-T-J2-PDC complex spheroids, viability;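 note: spheroids exposed to compounds for 7 days before viability read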

>  <CLASS LABEL>
class 0

$$$$

Would you mind telling me which call this test gave C=CC(=O)N1CCN(c2nc(OCC3CCCN3C)nc3c(F)c(-c4nc(N)cc(C)c4C(F)(F)F)c(Cl)cc23)C(C)C1 (stereo not given) + CCn1c(-c2cc(N3CCN(C)CC3)cnc2C(C)OC)c2c3cc(ccc31)-c1csc(n1)CC(NC(=O)C1CC1C)C(=O)N1CCCC(N1)C(=O)OCC(C)(C)C2 ? class 0

Would you mind telling me which call this test gave C=CC(=O)N1CCN(c2nc(OCC3CCCN3C)nc3c(F)c(-c4nc(N)cc(C)c4C(F)(F)F)c(Cl)cc23)C(C)C1 (stereo not given) + CCn1c(-c2cccnc2C(C)OC)c2c3cc(ccc31)N1CCOC(CC(NC(=O)C(C(C)C)N(C)C(=O)C3(F)CCN(C(=O)C#CC(C)(C)N(C)C)CC3)C(=O)N3CCCC(N3)C(=O)OCC(C)(C)C2)C1 ? class 0

Would you mind telling me which call this test gave C=CC(=O)Nc1cc(Nc2nccc(-c3cn(C)c4ccccc34)n2)c(OC)cc1N(C)CCN(C)C + CCn1c(-c2cccnc2C(C)OC)c2c3cc(ccc31)N1CCOC(CC(NC(=O)C(C(C)C)N(C)C(=O)C3(F)CCN(C(=O)C#CC(C)(C)N(C)C)CC3)C(=O)N3CCCC(N3)C(=O)OCC(C)(C)C2)C1 ? class 0

Would you mind telling me which call this test gave Cc1nc(N2CCC3(CC2)COC(C)C3N)c(CO)nc1Sc1ccnc(N)c1Cl (stereo not given) + CCn1c(-c2cc(N3CCN(C)CC3)cnc2C(C)OC)c2c3cc(ccc31)-c1csc(n1)CC(NC(=O)C1CC1C)C(=O)N1CCCC(N1)C(=O)OCC(C)(C)C2 ? class 0

Would you mind telling me which call this test gave CCN1CCN(Cc2ccc(Nc3ncc(F)c(-c4cc(F)c5nc(C)n(C(C)C)c5c4)n3)nc2)CC1 + CCn1c(-c2cc(N3CCN(C)CC3)cnc2C(C)OC)c2c3cc(ccc31)-c1csc(n1)CC(NC(=O)C1CC1C)C(=O)N1CCCC(N1)C(=O)OCC(C)(C)C2 ? class 0

Would you mind telling me which call this test gave O=C(c1ccc(F)c(F)c1Nc1ccc(I)cc1F)N1CC(O)([C@@H]2CCCCN2)C1 + CCn1c(-c2cccnc2C(C)OC)c2c3cc(ccc31)N1CCOC(CC(NC(=O)C(C(C)C)N(C)C(=O)C3(F)CCN(C(=O)C#CC(C)(C)N(C)C)CC3)C(=O)N3CCCC(N3)C(=O)OCC(C)(C)C2)C1 ? class 1

Would you mind telling me which call this test gave O=C(c1ccc(F)c(F)c1Nc1ccc(I)cc1F)N1CC(O)([C@@H]2CCCCN2)C1 + CCn1c(-c2cc(N3CCN(C)CC3)cnc2C(C)OC)c2c3cc(ccc31)-c1csc(n1)CC(NC(=O)C1CC1C)C(=O)N1CCCC(N1)C(=O)OCC(C)(C)C2 ? class 1

Would you mind telling me which call this test gave NC1c2ccccc2OC12CCN(c1cnc3c(N4CCCc5ncccc54)n[nH]c3n1)CC2 (stereo not given) + CCn1c(-c2cccnc2C(C)OC)c2c3cc(ccc31)N1CCOC(CC(NC(=O)C(C(C)C)N(C)C(=O)C3(F)CCN(C(=O)C#CC(C)(C)N(C)C)CC3)C(=O)N3CCCC(N3)C(=O)OCC(C)(C)C2)C1 ? class 0

Would you mind telling me which call this test gave Nc1ccn(C2OC(CO)C(O)C2(F)F)c(=O)n1 (stereo not given) + CCn1c(-c2cccnc2C(C)OC)c2c3cc(ccc31)N1CCOC(CC(NC(=O)C(C(C)C)N(C)C(=O)C3(F)CCN(C(=O)C#CC(C)(C)N(C)C)CC3)C(=O)N3CCCC(N3)C(=O)OCC(C)(C)C2)C1 ? class 1

Would you mind telling me which call this test gave C[C@@H](NC(=O)c1ncnc(N)c1Cl)c1ncc(C(=O)Nc2cc(C(F)(F)F)c(Cl)cn2)s1 + CCn1c(-c2cccnc2C(C)OC)c2c3cc(ccc31)N1CCOC(CC(NC(=O)C(C(C)C)N(C)C(=O)C3(F)CCN(C(=O)C#CC(C)(C)N(C)C)CC3)C(=O)N3CCCC(N3)C(=O)OCC(C)(C)C2)C1 ? class 0

Would you mind telling me which call this test gave CC(C)NCC(C(=O)N1CCN(c2ncnc3c2C(C)CC3O)CC1)c1ccc(Cl)cc1 (stereo not given) + CCn1c(-c2cccnc2C(C)OC)c2c3cc(ccc31)N1CCOC(CC(NC(=O)C(C(C)C)N(C)C(=O)C3(F)CCN(C(=O)C#CC(C)(C)N(C)C)CC3)C(=O)N3CCCC(N3)C(=O)OCC(C)(C)C2)C1 ? class 0
